Measured z-score, listed per entry.
protocolNotes: basal RPMI8226 mitochondrial membrane potential changes, profiling panel, cell-based, JC-1 fluorescence, 24 h, 100 nL compound (AID 1169)
experimentalSetup: RPMI8226 myeloma, JC-1 mitochondrial potential fluorescence, higher = more signal
Reply briefly: the number, and no unit.

(Q) What measured z-score goes with CCOC(=O)[C@H](CC(C)C)NC(=O)CCC1CC(OC(=O)NCc2ccc3c(c2)OCO3)CC2(CCCC(COC(=O)NCCC(C)C)O2)O1 (some centres undefined) ?
(A) -0.938

(Q) What measured z-score goes with CO[C@H]1C[C@@H]2C[C@H](O)CC(CC(=O)O[C@@H](C=CCC(C)C)C[C@@H]3CC[C@H](C)[C@@H](C1)O3)O2 ?
(A) 0.392

(Q) What measured z-score goes with C#CCCCON=C1C[C@@H](O)[C@@H](O)[C@@H]2[C@@H]3C(=O)N(C[C@@H]4CCCO4)C(=O)[C@@H]3CC[C@@H]12 ?
(A) -0.193

(Q) What measured z-score goes with CO[C@H]1COC(=O)CC=C[C@H](C)[C@H](OC)COC(=O)[C@@H](C)NC(=O)CC=C[C@@H]1C ?
(A) -0.283

###

System: XIP peptide (Xip251-270) binding
protocolNotes: small-molecule binders of XIP peptide, primary screen, biochemical, small-molecule microarray, fluorescence 635/667 nm, 0.1 µg/mL protein (AID 1182)
experimentalSetup: fluorescent protein binding, 635 nm, higher = more signal, called active from +8 up or from −8 down
Calls of active or inactive are those of the source.
propertyMeasured: composite z-score

(Q) What measured composite z-score goes with COC(=O)[C@H](C)NC(=O)CCC1CC(OC(=O)NCc2ccc3c(c2)OCO3)CC2(CCCC(COC(=O)NCCc3ccc(Cl)cc3)O2)O1 (some centres not stated) ?
(A) 0.0239 (inactive)

(Q) What measured composite z-score goes with CC(=O)OC[C@H]1O[C@H](CC=NO[C@H](C)c2cn([C@@H]3COC[C@H]3O)nn2)C=C[C@@H]1OC(C)=O ?
(A) -0.205 (inactive)

(Q) What measured composite z-score goes with CC(C)(C)N1C(=O)[C@H]2[C@@H]3C(=CC[C@H]2C1=O)C(=O)[C@H]1O[C@H]1[C@H]3O ?
(A) 0.139 (inactive)

###

testedSystem: Pro-neuregulin-1, membrane-bound isoform (Homo sapiens)
protocolNotes: NRG1 binders on small-molecule microarrays, primary screen, psychiatric disease protein project, biochemical, small-molecule microarray, fluorescence 635/667 (AID 1075);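 note: score combines 667 nm spot fluorescence with signal to noise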
experimentalSetup: NRG1 binding, 635 nm fluorescence, higher = more signal
propertyMeasured: composite z-score

(Q) What measured composite z-score goes with CC(C)=NOC(C)CN1CCCc2nc(C)c(C)cc21 (stereo unspecified) ?
(A) 0.702

(Q) What measured composite z-score goes with C[C@H]1C=CCC(=O)OC[C@H](C)C(=O)N2CCC[C@H]2C(=O)OC1 ?
(A) -1.01

(Q) What measured composite z-score goes with COC(=O)[C@H](C)NC(=O)CCC1CC(OC(=O)NCc2ccc3c(c2)OCO3)CC2(CCCC(COC(=O)NCCc3ccc(Cl)cc3)O2)O1 (stereo partly specified) ?
(A) 0.212

(Q) What measured composite z-score goes with COC(=O)[C@H](C)NC(=O)CCC1CC(OC(=O)NCc2cccc3ccccc23)CC2(CCCC(COC(=O)NCCCN3CCCC3=O)O2)O1 (stereo partly specified) ?
(A) 0.567

(Q) What measured composite z-score goes with C=CC[C@@H]1C=C[C@H](Oc2ccc(C)cc2)[C@@H](COC(=O)NCc2cccc3ccccc23)O1 ?
(A) 0.528

(Q) What measured composite z-score goes with CCOC(=O)[C@H](Cc1ccccc1)NC(=O)CCC1CC(OC(=O)NCc2ccc3c(c2)OCO3)CC2(CCCC(COC(=O)NCCOc3ccccc3)O2)O1 (stereo partly specified) ?
(A) 0.833
